Biological target: human MC4R receptor (human, UniProt P32245 1-332)
Sequence (P32245 whole entry): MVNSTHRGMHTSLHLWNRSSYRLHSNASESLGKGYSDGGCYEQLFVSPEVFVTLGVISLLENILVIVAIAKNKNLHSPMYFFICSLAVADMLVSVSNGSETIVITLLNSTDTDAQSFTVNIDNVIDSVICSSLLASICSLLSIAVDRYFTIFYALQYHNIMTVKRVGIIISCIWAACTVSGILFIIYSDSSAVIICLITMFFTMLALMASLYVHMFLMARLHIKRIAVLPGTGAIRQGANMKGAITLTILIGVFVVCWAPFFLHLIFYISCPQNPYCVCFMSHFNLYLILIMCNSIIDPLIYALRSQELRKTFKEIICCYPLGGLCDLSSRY
Test: cell-based or functional assay
Starred links: 1 amine or outer side, 2 acyl side, 3 side chain; linkers in the order of their positions; H or OH if unused. Positions of bridges follow the written chain, without caps; N, C: chain ends. Non-standard residues stand in square brackets, D forms with d. dTyr(O-Me) = O-methyl-D-tyrosine, COc1ccc(C[C@@H](N[*:1])C(=O)[*:2])cc1; dPhe(4-Br) = N[C@H](Cc1ccc(Br)cc1)C(=O)O
observable: MC4R selectivity vs MC3R

• Ac-RC[dA]R[dTyr(O-Me)]R[dW]C-NH2 (disulfide 2-8; SMILES COc1ccc(C[C@H]2NC(=O)[C@H](CCCNC(=N)N)NC(=O)[C@@H](C)NC(=O)[C@@H](NC(=O)[C@H](CCCNC(=N)N)NC(C)=O)CSSC[C@@H](C(N)=O)NC(=O)[C@@H](Cc3c[nH]c4ccccc34)NC(=O)[C@H](CCCNC(=N)N)NC2=O)cc1) [CTX-1238] = 0.49
• Ac-RC[dA]R[dPhe(4-Br)][dR][dW]C-NH2 (disulfide 2-8) [CTX-1252] = 0.06
• Ac-RC[dA]R[dF][dR]WC-NH2 (disulfide 2-8; SMILES CC(=O)N[C@@H](CCCNC(=N)N)C(=O)N[C@H]1CSSC[C@@H](C(N)=O)NC(=O)[C@H](Cc2c[nH]c3ccccc23)NC(=O)[C@@H](CCCNC(=N)N)NC(=O)[C@@H](Cc2ccccc2)NC(=O)[C@H](CCCNC(=N)N)NC(=O)[C@@H](C)NC1=O) [CTX-1282] = 0.38

Value source: patent US20240391954A1
